Each recorded value in this set is attributed to ChEMBL document CHEMBL3507680.

Test: Human HepG2 cell viability assay in 384 well format
Type: toxicity, cell-based
Design: dose 125 nL, time 70.5 hour; concentration not given beside the values
Details: HepG2 cells, read-out: Inhibition
readoutName: cytotoxicity at 70.5 h (%)
Your answer is read as %, so omit the unit and give the number.

Worked examples, 5 compounds total:
{"columns": ["compound", "cytotoxicity at 70.5 h (%)"],
 "data": [
  ["CN(Cc1ccc(Cl)s1)C(=O)NCCC(=O)N1CCCCCC1", -4.9],
  ["CC(=O)N1CCN(C(=O)CNc2cccc(OC(F)F)c2C)CC1", -1.78],
  ["O=C1CC(c2ccccc2)c2c(c(C(=O)O)cn2-c2ccccc2)N1 (centres undefined)", -10.7],
  ["COc1ncccc1NC(=O)NCC1CC1", -3.58],
  ["CN1CCCc2c1nc1c(c2N)CCCC1", 23]
]}

Sample CCNC(=O)C1CN(Cc2c(-c3cc(C)on3)nn(C)c2Cl)CCO1 (centres undefined) — what was its cytotoxicity at 70.5 h?
2.76

Quick one: cytotoxicity at 70.5 h for CCC(NC1Cc2ccccc2C1)c1ccc(S(C)(=O)=O)cc1 (centres undefined) ?
-14.8

Fill in the blank: the reported cytotoxicity at 70.5 h of CCOCC(=O)NCC(Cc1cccc(F)c1)N1CCCCC1=O (centres undefined) is ____.
30

Return reported cytotoxicity at 70.5 h; argument: O=C(N[C@@H]1CCC[C@@H](N2CCCC2)[C@@H]1O)c1cc2ccccc2[nH]1
-8.28

###

Experiment: Human HepG2 cell viability assay in 384 well format
Assay type: toxicity, cell-based
Parameters: dose 125 nL, time 70.5 hour; concentration not given beside the values
Settings: HepG2 cells, read-out: Inhibition
readoutName: cytotoxicity at 70.5 h

Record excerpt, results attached:
{"columns": ["molecule", "readoutName", "measuredValue"],
 "data": [
  ["Cc1nn(C)cc1C1=NS(=O)(=O)N(C)C(C(=O)Nc2ccc(Cl)cc2)=C1", "cytotoxicity at 70.5 h", "1.32%"],
  ["Cc1ccc(C(=O)Nc2ccccc2N2CCCC2)n1C", "cytotoxicity at 70.5 h", "12%"],
  ["O=C(NCC1COCc2c(-c3ccncc3)nnn2C1)[C@H]1CCCO1 (some centres not stated)", "cytotoxicity at 70.5 h", "-0.723%"],
  ["Cc1nccn1CCCC(=O)N1CCC(Nc2cccnn2)CC1", "cytotoxicity at 70.5 h", "5.36%"],
  ["CCc1nnsc1C(=O)N1CCOC(c2nc(C(C)C)n[nH]2)C1 (configuration not stated)", "cytotoxicity at 70.5 h", "-2.32%"]
]}

So what does the record say about cytotoxicity at 70.5 h for CCN1CCC(c2nc3ccc(NC4CCC4)cn3n2)CC1 ?
-4.48%

Field request: cytotoxicity at 70.5 h | item: Cc1nnc(N2CCc3cncnc3C2)c(C#N)c1C
-4.76%

###

Experiment: Human HepG2 cell viability assay in 384 well format
Assay type: toxicity, cell-based
Parameters: dose 125 nL, time 70.5 hour; concentration not given beside the values
Settings: HepG2 cells, read-out: Inhibition
readoutName: cytotoxicity at 70.5 h (%)
Just the number in %, nothing appended.

{"columns": ["molecule", "measuredValue"],
 "data": [
  ["CCN(CC)Cc1ccccc1NC(=O)N(C)Cc1ccc(OC)cc1", -15.6],
  ["c1cc(-c2ccc(CN3CCCC4(CCNC4)C3)s2)[nH]n1 (centres undefined)", 1.71],
  ["O=C(O)CCc1cc2n(n1)CCN(Cc1cnc(N3CCCC3)nc1)C2", -2.38],
  ["O=C(Nc1cnc(C2CC2)nc1)N1CCCC1", -1.33],
  ["N#Cc1ccnc(N2CCN(CC(O)c3ccc(F)cc3F)CC2)c1 (centres undefined)", -3.3],
  ["COc1ncc(NS(=O)(=O)c2ccc(F)cc2F)cn1", -3.22],
  ["CN1CCN(Cc2cccc(C#N)c2)Cc2cccnc21", -7.78],
  ["CC(C)C(NC(=O)c1ccco1)C(=O)N1CCC2(CC1)OCCO2 (centres undefined)", 17.8],
  ["CC(C)OCc1ncn2c1CN(CC1CC1)CCC2", 20.2],
  ["COc1cc2ccccc2cc1C(=O)N1CCCC(c2nncn2C)C1 (centres undefined)", -11.4]
]}

I would be grateful if you could share the reported cytotoxicity at 70.5 h for CN(C)C(=O)[C@H]1C[C@@H]2CCN(C3CCOCC3)C[C@H]2O1 .
-8.09

Consider the molecule shown here: Cc1cc(NC(=O)CN2CCc3cnc(C)nc3C2)on1 What is its recorded cytotoxicity at 70.5 h?
35.8

cytotoxicity at 70.5 h for O=C(O)c1ccc(=O)n(CC(c2ccc(F)cc2)N2CCCCCC2)c1 (centres undefined) ?
-7.77

# input molecule: CCC(CO)N(Cc1cccc(-n2cccn2)c1)Cc1ccccn1 (centres undefined) ; wanted: its cytotoxicity at 70.5 h
8.06
